FYI, the data here is from paper PMC7467771.

RUN_DESCRIPTION: octanol/water partition coefficient (log P) by TNBS assay
Assay type: physicochemical
RUN_PARAMETERS: octanol/water mixture 1:1 v/v; mean, n = 3
Protocol: Log P of Arg and both Arg-esters were determined using an already described method.[15] Each compound was dissolved in an octanol/water mixture (1:1, v/v). Afterward, octanol and water phases were separated by a high-speed mini centrifuge (Fisher Scientific, Illinois USA), and the concentration of each compound in each phase was determined by the TNBS assay. […] The absorbance of each sample was measured at 335 nm using a Spark multifunctional microplate reader (Tecan Austria, GmbH). […]
MEASURE_NAME: logP
API doc: respond with a numeric literal and nothing else, no unit.

Past entries and their recorded results:
MOLECULE	logP
CCCCCCCCCCCCC(CCCCCCCCCC)COC(=O)[C@@H](N)CCCNC(=N)N.O=C(O)C(F)(F)F (stereo partly drawn)	0.6
CCCCCCCCC=CCCCCCCCCOC(=O)[C@@H](N)CCCNC(=N)N.O=C(O)C(F)(F)F	0.3

Next molecule, logP to be filled in.
Sample N=C(N)NCCC[C@H](N)C(=O)O ; logP observed: -1.9
